Test system: Plasmodium falciparum
assay info: GSK_TCMDC: Inhibition of Plasmodium falciparum Dd2 in whole red blood cells, using parasite LDH activity as an index of growth. Test compounds present at 2uM
Format: functional
The label is 1 for Inhibition below 40% and 0 for Inhibition equal to or exceeding 40%.

mol	class name
O=C(Nc1ccccc1)N1CCC(CN2CCOC(c3ccccc3)(c3ccccc3)C2)CC1	0
NC(=O)c1cccc(-n2ccc3cc(CNC4Cc5ccccc5C4)ccc32)c1.O=C(O)C(F)(F)F	1

Below 40% on Inhibition? Entry `CC(C)c1nc(N2CCN(C(=S)NCc3ccccc3)CC2)c(C#N)c2c1COC(C)(C)C2` 0

Further, for `Cc1ccc(NC(=O)Nc2ccc(I)c(OCCN(C)C)c2)cc1Cl` ? 1

Further, for `COc1ccc2[nH]c3ccccc3c(=O)c2c1` ? 0

Further, for `CCN(CC)c1ccccc1CNC(=O)c1cc(Cl)c(N)cc1OC` ? 0

Further, for `Fc1ccc2[nH]c3c(NCCN4CCCCC4)ncnc3c2c1` ? 0
